These data points were gathered from paper PMC10247784.

Biological target: human TAS2R1 (Homo sapiens, UniProt Q9NYW7)
Construct: expressed in transfected cells; host or cells: HEK293T-Gα16gust44
Sequence (Q9NYW7 whole entry): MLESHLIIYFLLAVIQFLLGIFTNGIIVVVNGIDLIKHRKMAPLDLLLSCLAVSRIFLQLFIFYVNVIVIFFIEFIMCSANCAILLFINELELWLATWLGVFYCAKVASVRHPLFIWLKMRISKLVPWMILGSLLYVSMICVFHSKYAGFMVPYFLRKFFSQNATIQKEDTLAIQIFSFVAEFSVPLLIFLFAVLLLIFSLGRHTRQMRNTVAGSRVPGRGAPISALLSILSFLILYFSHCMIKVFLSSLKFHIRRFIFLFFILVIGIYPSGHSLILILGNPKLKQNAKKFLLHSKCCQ
Assay: Calcium imaging assay (FLIPR), HEK293T-Gα16gust44 cells transfected with human TAS2R1
Assay type: cell-based
Details: Time 42.781 s
Below, each entry is listed with its recorded RLU.
Express the result in RLU but write the number alone.

Past entries and their recorded results:
# compound, readout_unit, RLU
measured = [
    ("C[C@H](CCC(=O)NCCS(=O)(=O)O)[C@H]1CC[C@H]2[C@@H]3CC[C@@H]4C[C@H](O)CC[C@]4(C)[C@H]3CC[C@]12C [Taurolithocholic Acid, taurolithocholic acid]", "RLU", 511.157),
    ("C[C@H](CCC(=O)NCCS(=O)(=O)O)[C@H]1CC[C@H]2[C@@H]3[C@H](O)C[C@@H]4C[C@H](O)CC[C@]4(C)[C@H]3C[C@H](O)[C@]12C [Taurocholic Acid, taurocholic acid]", "RLU", 354.401),
    ("C[C@H](CCC(=O)NCC(=O)O)[C@H]1CC[C@H]2[C@@H]3[C@H](O)C[C@@H]4C[C@H](O)CC[C@]4(C)[C@H]3C[C@H](O)[C@]12C [Glycocholic Acid, glycocholic acid]", "RLU", 562.235),
]

Pending compound:
Value of measured RLU for the entry C[C@H](CCC(=O)O)[C@H]1CC[C@H]2[C@@H]3CC[C@@H]4C[C@H](O)CC[C@]4(C)[C@H]3C[C@H](O)[C@]12C [Deoxycholic Acid, deoxycholic acid] : 355.405

====

Target: human TAS2R4 (Homo sapiens, UniProt Q9NYW5)
Construct: expressed in transfected cells; host or cells: HEK293T-Gα16gust44
Sequence (Q9NYW5 whole entry): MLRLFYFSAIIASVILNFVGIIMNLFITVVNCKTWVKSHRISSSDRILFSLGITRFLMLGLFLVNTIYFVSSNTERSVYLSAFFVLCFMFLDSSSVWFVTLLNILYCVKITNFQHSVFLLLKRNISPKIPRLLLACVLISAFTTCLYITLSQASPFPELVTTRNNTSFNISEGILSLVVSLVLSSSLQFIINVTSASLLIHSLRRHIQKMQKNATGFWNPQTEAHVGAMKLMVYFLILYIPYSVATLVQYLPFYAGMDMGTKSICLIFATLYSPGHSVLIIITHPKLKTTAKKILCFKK
Experiment: Calcium imaging assay (FLIPR), HEK293T-Gα16gust44 cells transfected with human TAS2R4; also: test concentration or dose not given here
Format: cell-based
Details: Time (s) 86.781 (TCA, TLCA: 86.782)
Think of 600 RLU as a floor: if RLU, fluorescence trace stands on it or above, it is class 1; beneath it, class 0.

Worked cases, answers included:
# compound, class_name
records = [
    ("C[C@H](CCC(=O)O)[C@H]1CC[C@H]2[C@@H]3[C@H](O)C[C@@H]4C[C@H](O)CC[C@]4(C)[C@H]3C[C@H](O)[C@]12C [Cholic Acid, cholic acid]", "class 1"),
    ("C[C@H](CCC(=O)O)[C@H]1CC[C@H]2[C@@H]3[C@@H](O)C[C@@H]4C[C@H](O)CC[C@]4(C)[C@H]3CC[C@]12C [Ursodeoxycholic Acid, ursodeoxycholic acid]", "class 0"),
    ("C[C@H](CCC(=O)NCC(=O)O)[C@H]1CC[C@H]2[C@@H]3[C@H](O)C[C@@H]4C[C@H](O)CC[C@]4(C)[C@H]3C[C@H](O)[C@]12C [Glycocholic Acid, glycocholic acid]", "class 1"),
    ("C[C@H](CCC(=O)NCCS(=O)(=O)O)[C@H]1CC[C@H]2[C@@H]3[C@H](O)C[C@@H]4C[C@H](O)CC[C@]4(C)[C@H]3C[C@H](O)[C@]12C [Taurocholic Acid, taurocholic acid]", "class 1"),
    ("C[C@H](CCC(=O)NCCS(=O)(=O)O)[C@H]1CC[C@H]2[C@@H]3CC[C@@H]4C[C@H](O)CC[C@]4(C)[C@H]3CC[C@]12C [Taurolithocholic Acid, taurolithocholic acid]", "class 0"),
]

We now examine a further compound.
Input: Reported RLU, fluorescence trace reaches at least 600 RLU for C[C@H](CCC(=O)O)[C@H]1CC[C@H]2[C@@H]3CC[C@@H]4C[C@H](O)CC[C@]4(C)[C@H]3C[C@H](O)[C@]12C [Deoxycholic Acid, deoxycholic acid] ?
Output: class 0
